Assignment: determine reported TGI for the given compounds.
Test system: PC-3 prostate
Experiment: NCI tumour cell line growth inhibition, 48 h

# map each compound to its TGI
1. COc1cc2c(cc1OC)CC1c3cc(OC)c(OC)cc3CCN1CC2 (stereo unspecified)
2. Clc1ccc(OCc2nnc3sc(-c4ccc(-c5ccc(Cl)cc5Cl)o4)nn23)cc1
3. CC(C)C[C@H](NC(=O)[C@H](Cc1ccc(F)cc1)NC(=O)c1ccccn1)B(O)O
4. CSc1nc2c(c(N3CCOCC3)n1)C(O)n1c(nc3ccccc31)S2 (stereo unspecified)
5. COc1cc2c(cc1OC)C(=O)C1(C2)[C@H](c2ccccc2)C2C(=O)c3cc(OC)c(OC)cc3C2[C@H]1c1ccccc1 (stereo partly specified)
6. COc1cc2c(cc1O)C1(Cc3ccc4c(c3C1=O)OCO4)N(C)CC2 (stereo unspecified)

Response line:
> 100 µM
> 100 µM
< 0.01 µM
> 100 µM
> 100 µM
> 100 µM
